Data credit: patent US20120121540A1

Experiment: HCV replicon assay (luciferase reporter, ET cell line)
Assay type: cell-based
Settings: Hepatitis C virus, HCV replicon luciferase activity in ET cells
QUANTITY: inhibition at 10 µM (%)

- O=C(c1nc2c(C(F)(F)F)cc(-c3ccoc3)cn2c1Cl)N1CC(NS(=O)(=O)Cc2ccccc2)C1: 91.4
- CN(C)c1cc(-c2ccccc2)cc2cc(C(=O)NCc3cccs3)nn12: 43.5
- O=C(NCc1ccc(OC(F)(F)F)cc1)c1nc2c(C(F)(F)F)cc(-c3ccco3)cn2c1Cl: 31.7
- O=C(NCc1cccs1)c1nc2c(C(F)(F)F)cc(-c3ccco3)cn2c1Cl: 92.5
